Values compiled from patent US20230092890A1.

Target: HDAC6 human recombinant (Homo sapiens, UniProt Q9UBN7)
Construct: purchased Calbiochem 382180
Sequence (Q9UBN7 whole entry): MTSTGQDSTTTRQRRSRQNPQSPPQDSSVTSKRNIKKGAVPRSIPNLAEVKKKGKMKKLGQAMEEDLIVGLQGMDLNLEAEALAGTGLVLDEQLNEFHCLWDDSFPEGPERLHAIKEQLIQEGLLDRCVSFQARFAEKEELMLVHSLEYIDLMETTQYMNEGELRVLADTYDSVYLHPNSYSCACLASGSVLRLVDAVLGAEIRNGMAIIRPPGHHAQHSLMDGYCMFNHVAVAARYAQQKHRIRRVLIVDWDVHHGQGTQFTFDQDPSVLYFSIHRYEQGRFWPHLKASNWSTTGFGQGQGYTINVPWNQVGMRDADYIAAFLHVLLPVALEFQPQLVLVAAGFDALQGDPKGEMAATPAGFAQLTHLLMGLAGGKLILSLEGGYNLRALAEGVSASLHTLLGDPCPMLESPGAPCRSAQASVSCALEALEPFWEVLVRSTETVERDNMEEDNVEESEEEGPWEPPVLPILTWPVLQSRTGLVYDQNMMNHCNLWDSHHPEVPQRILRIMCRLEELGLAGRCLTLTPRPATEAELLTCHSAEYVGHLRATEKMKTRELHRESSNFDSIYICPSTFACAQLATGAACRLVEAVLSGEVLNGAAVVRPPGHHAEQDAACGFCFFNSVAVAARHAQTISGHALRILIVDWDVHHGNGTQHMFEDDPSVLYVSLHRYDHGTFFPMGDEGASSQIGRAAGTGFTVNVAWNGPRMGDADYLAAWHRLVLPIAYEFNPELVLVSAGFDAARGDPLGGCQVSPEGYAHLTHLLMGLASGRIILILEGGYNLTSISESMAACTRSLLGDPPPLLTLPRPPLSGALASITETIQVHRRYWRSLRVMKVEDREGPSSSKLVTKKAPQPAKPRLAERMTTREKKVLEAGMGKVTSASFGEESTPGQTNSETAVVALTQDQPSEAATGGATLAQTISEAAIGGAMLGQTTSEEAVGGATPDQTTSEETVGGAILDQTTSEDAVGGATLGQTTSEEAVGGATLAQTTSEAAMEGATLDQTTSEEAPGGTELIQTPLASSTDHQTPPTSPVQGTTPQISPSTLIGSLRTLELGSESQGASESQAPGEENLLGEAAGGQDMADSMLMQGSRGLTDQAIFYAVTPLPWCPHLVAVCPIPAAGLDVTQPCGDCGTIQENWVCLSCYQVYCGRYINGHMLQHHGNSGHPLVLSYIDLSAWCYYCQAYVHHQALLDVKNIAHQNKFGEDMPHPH
Assay: HDAC enzyme activity inhibition (in vitro), HDAC6 assay
Assay type: biochemical
Conditions: samples at 0.1, 1, 10, 100 and 1000 nM; 37° C. 60 minutes; fluorescence Ex 390, Em 460; read-out: HDAC6 IC50
Recorded IC50 for the following compounds
experimental.endpoint: IC50 (nM)

[[record]]
compound_smiles = "Cn1c(=O)n(Cc2ccc(-c3nnc(C(F)F)o3)cn2)c2cc(F)c(-c3cnc(N4CCN(C(=O)OC(C)(C)C)CC4)nc3)cc21"
target_system = "HDAC6 human recombinant (Homo sapiens, UniProt Q9UBN7)"
measured_number = 208

[[record]]
compound_smiles = "CC(=O)N1CCC(c2ccc3c(c2)n(C2CCN(C)CC2)c(=O)n3Cc2ccc(-c3nnc(C(F)F)o3)cc2F)CC1"
target_system = "HDAC6 human recombinant (Homo sapiens, UniProt Q9UBN7)"
measured_number = 159

[[record]]
compound_smiles = "CN1CCC[C@@H](n2c(=O)n(Cc3ccc(-c4nnc(C(F)F)o4)cn3)c3cc(F)c(-c4cccnc4)cc32)C1"
target_system = "HDAC6 human recombinant (Homo sapiens, UniProt Q9UBN7)"
measured_number = 12

[[record]]
compound_smiles = "O=c1n(Cc2ccc(-c3nnc(C(F)F)o3)cc2F)c2cc(F)ccc2n1C1CCN(C2CCOCC2)CC1"
target_system = "HDAC6 human recombinant (Homo sapiens, UniProt Q9UBN7)"
measured_number = 26

[[record]]
compound_smiles = "O=c1n(Cc2ccc(-c3nnc(C(F)F)o3)cn2)c2cc(F)c(-c3cn[nH]c3)cc2n1CC1CCN(C2COC2)CC1"
target_system = "HDAC6 human recombinant (Homo sapiens, UniProt Q9UBN7)"
measured_number = 3

[[record]]
compound_smiles = "CC(C)N1CCC(n2c(=O)n(Cc3ccc(-c4nnc(C(F)F)o4)cn3)c3ccc(F)cc32)CC1"
target_system = "HDAC6 human recombinant (Homo sapiens, UniProt Q9UBN7)"
measured_number = 103

[[record]]
compound_smiles = "O=c1n(Cc2ccc(-c3nnc(C(F)F)o3)cn2)c2cc(F)c(-c3ccncc3)cc2n1CC1CCN(C2COC2)CC1"
target_system = "HDAC6 human recombinant (Homo sapiens, UniProt Q9UBN7)"
measured_number = 9

[[record]]
compound_smiles = "O=c1n(Cc2ccc(-c3nnc(C(F)F)o3)cc2F)c2ccccc2n1C1CC2(COC2)C1"
target_system = "HDAC6 human recombinant (Homo sapiens, UniProt Q9UBN7)"
measured_number = 110

[[record]]
compound_smiles = "Cn1c(=O)n(Cc2ccc(-c3nnc(C(F)F)o3)cn2)c2cc(F)ccc21"
target_system = "HDAC6 human recombinant (Homo sapiens, UniProt Q9UBN7)"
measured_number = 18

[[record]]
compound_smiles = "Cn1c(=O)n(Cc2ccc(-c3nnc(C(F)F)o3)cn2)c2cc(F)c(-c3ccc(CN4CCOCC4)nc3)cc21"
target_system = "HDAC6 human recombinant (Homo sapiens, UniProt Q9UBN7)"
measured_number = 22

[[record]]
compound_smiles = "O=c1n(Cc2ccc(-c3nnc(C(F)F)o3)cn2)c2ccc(F)cc2n1C1CCN(C2CCCCC2)CC1"
target_system = "HDAC6 human recombinant (Homo sapiens, UniProt Q9UBN7)"
measured_number = 126

[[record]]
compound_smiles = "CN(C)CCn1c(=O)n(Cc2ccc(-c3nnc(C(F)F)o3)cn2)c2ccccc21"
target_system = "HDAC6 human recombinant (Homo sapiens, UniProt Q9UBN7)"
measured_number = 115

[[record]]
compound_smiles = "CN1CCC(n2c(=O)n(Cc3ccc(-c4nnc(C(F)F)o4)cc3)c3cc(F)c(F)cc32)CC1"
target_system = "HDAC6 human recombinant (Homo sapiens, UniProt Q9UBN7)"
measured_number = 51

[[record]]
compound_smiles = "CN1CCC(n2c(=O)n(Cc3ccc(-c4nnc(C(F)F)o4)cn3)c3cc(F)c(-c4ccc(F)cc4F)cc32)CC1"
target_system = "HDAC6 human recombinant (Homo sapiens, UniProt Q9UBN7)"
measured_number = 16

[[record]]
compound_smiles = "CCN1CCC(n2c(=O)n(Cc3ccc(-c4nnc(C(F)F)o4)cn3)c3cc(F)ccc32)CC1"
target_system = "HDAC6 human recombinant (Homo sapiens, UniProt Q9UBN7)"
measured_number = 39

[[record]]
compound_smiles = "Cn1c(=O)n(Cc2ccc(-c3nnc(C(F)F)o3)cn2)c2cc(F)c(N3CCN(C(=O)CO)CC3)cc21"
target_system = "HDAC6 human recombinant (Homo sapiens, UniProt Q9UBN7)"
measured_number = 39

[[record]]
compound_smiles = "CN1CCC(n2c(=O)n(Cc3ccc(-c4nnc(C(F)F)o4)cc3F)c3ccc(C4CCN(S(C)(=O)=O)CC4)cc32)CC1"
target_system = "HDAC6 human recombinant (Homo sapiens, UniProt Q9UBN7)"
measured_number = 138

[[record]]
compound_smiles = "CN1CCC(n2cc(-c3cc4oc(=O)n(Cc5ccc(-c6nnc(C(F)F)o6)cn5)c4cc3F)cn2)CC1"
target_system = "HDAC6 human recombinant (Homo sapiens, UniProt Q9UBN7)"
measured_number = 27

[[record]]
compound_smiles = "O=c1n(Cc2ccc(-c3nnc(C(F)F)o3)cc2)c2cc(F)ccc2n1C1CCS(=O)(=O)CC1"
target_system = "HDAC6 human recombinant (Homo sapiens, UniProt Q9UBN7)"
measured_number = 46

[[record]]
compound_smiles = "O=c1n(CCN2CCOCC2)c2ccccc2n1Cc1ccc(-c2nnc(C(F)F)o2)cc1F"
target_system = "HDAC6 human recombinant (Homo sapiens, UniProt Q9UBN7)"
measured_number = 203

[[record]]
compound_smiles = "Cn1c(=O)n(Cc2ccc(-c3nnc(C(F)F)o3)cn2)c2ccc(-c3cccc4[nH]ccc34)cc21"
target_system = "HDAC6 human recombinant (Homo sapiens, UniProt Q9UBN7)"
measured_number = 10

[[record]]
compound_smiles = "CN1CCC(n2c(=O)n(Cc3ccc(-c4nnc(C(F)F)o4)cn3)c3cc(F)c(-c4ccc5c(ccn5C)c4)cc32)CC1"
target_system = "HDAC6 human recombinant (Homo sapiens, UniProt Q9UBN7)"
measured_number = 18

[[record]]
compound_smiles = "CC(=O)N1CCC(n2c(=O)n(Cc3ccc(-c4nnc(C(F)F)o4)cc3)c3cc(F)ccc32)CC1"
target_system = "HDAC6 human recombinant (Homo sapiens, UniProt Q9UBN7)"
measured_number = 34

[[record]]
compound_smiles = "CN1CCC(n2c(=O)n(Cc3ccc(-c4nnc(C(F)F)o4)cc3F)c3ccc(-c4cccc(F)c4)cc32)CC1"
target_system = "HDAC6 human recombinant (Homo sapiens, UniProt Q9UBN7)"
measured_number = 71

[[record]]
compound_smiles = "O=c1n(Cc2ccc(-c3nnc(C(F)F)o3)cn2)c2cc(F)c(N3CCN(CC(F)(F)F)CC3)cc2n1C1COC1"
target_system = "HDAC6 human recombinant (Homo sapiens, UniProt Q9UBN7)"
measured_number = 70

[[record]]
compound_smiles = "O=c1n(Cc2ccc(-c3nnc(C(F)F)o3)cn2)c2cc(F)c(-c3cccc4[nH]ccc34)cc2n1C1CCN(CC(F)(F)F)CC1"
target_system = "HDAC6 human recombinant (Homo sapiens, UniProt Q9UBN7)"
measured_number = 51

[[record]]
compound_smiles = "O=c1oc2cc(C3CCN(C4COC4)CC3)ccc2n1Cc1ccc(-c2nnc(C(F)F)o2)cn1"
target_system = "HDAC6 human recombinant (Homo sapiens, UniProt Q9UBN7)"
measured_number = 112

[[record]]
compound_smiles = "CN1CCC(N2Cc3ccccc3N(Cc3ccc(-c4nnc(C(F)F)o4)cn3)C2=O)CC1"
target_system = "HDAC6 human recombinant (Homo sapiens, UniProt Q9UBN7)"
measured_number = 171

[[record]]
compound_smiles = "O=c1n(Cc2ccc(-c3nnc(C(F)F)o3)cc2F)c2ccccc2n1C1CN(C2COC2)C1"
target_system = "HDAC6 human recombinant (Homo sapiens, UniProt Q9UBN7)"
measured_number = 241

